reported-property: melting point (°C)

Worked examples follow.
In [3]: df
Out[3]:
                                   compound  reading_unit  numeric_value
0          Cc1c(C)c(C)c(S(=O)(=O)Cl)c(C)c1C            °C             80
1               NC(=O)C1c2ccccc2CCc2ccccc21            °C            194
2  CC(C)C(C(=O)OC(C#N)c1cccc(Oc2ccccc2)c1)c1ccc(Cl)cc1 (stereo unspecified)            °C             60
3  O=S(=O)(O)c1ccc(N=Nc2ccc(N=Nc3ccc(S(=O)(=O)O)cc3)cc2)cc1            °C            157
4   CC(=O)Oc1c(I)cc(I)cc1C(=O)Nc1ccc(Cl)cc1            °C            216
5   C1=CC2=CC=Cc3c(c(c4cccc5cccc3c54)=C1)C2            °C            171
6  C#CC(C)(CC)OC(=O)c1ccccc1C(=O)O (stereo unspecified)            °C             97
7      CC(CBr)c1ccccc1 (stereo unspecified)            °C          -59.3
8        CCCC(O)CC(C)C (stereo unspecified)            °C            -81
9                 Cc1cccc(NC(=O)c2ccccc2)c1            °C            125

a. CN(C)c1ccc(C2Nc3nc(C(F)(F)F)nn3C(N)=C2C#N)cc1 (stereo unspecified)
b. CC(=O)NCc1ccccc1
# return whichever of a and b has the smaller melting point // caller expects the label of the chosen entry
b
(b: 61 °C, a: 164 °C)

P. CCCC(=NOCC)C1=C(O)CC(C2CCCSC2)CC1=O (stereo unspecified)
Q. COc1ccc(CCC(=O)O)cc1OC
# return whichever of P and Q has the smaller melting point // caller expects the label of the chosen entry
P

---

reported-property: melting point (°C)

In [3]: df
Out[3]:
                                   compound  reported_property  numeric_value
0  COc1cc2c(cc1OCc1ccccc1)C(C)N(C)CC2 (configuration not stated)      melting point             82
1                COc1c(Cl)cccc1[N+](=O)[O-]      melting point             58
2  O=C(Nc1cc2c(cc1/C=C/c1ccccc1)CC(c1ccccc1)N2C(=O)c1ccccc1)c1ccccc1 (configuration not stated)      melting point            250

P. CCOc1ccc(-c2nnc3n2NC(c2ccc(O)c(OC)c2)S3)cc1 (configuration not stated)
Q. COc1cc(Br)cc(Br)c1
# return whichever of P and Q has the smaller melting point // caller expects the label of the chosen entry
Q

1. CC1=C(C(=O)Nc2ccccc2)CCCO1
2. FC(F)(F)C(F)(F)C(F)(F)C(F)(F)I
3. CC1=NN(CN2CCOCC2)C(=O)/C1=N\Nc1cc(Cl)c(Cl)cc1Cl
Order each entry by recorded melting point, climbing from the minimum. Answer by writing out the labels in the requested order.
2, 1, 3
(2: -68 °C, 1: 110 °C, 3: 175 °C)

---

melting point values, listed per item

Worked examples follow.
>>> df
                                   compound  reported_property         result
0                   CCOC(=O)Cc1csc(=S)[nH]1      melting point  136 to 144 °C
1                         Cc1cnc(Cl)c(Br)c1      melting point    66 to 68 °C
2        O=[N+]([O-])c1ccc(N2CCNCC2)c(Cl)c1      melting point  105 to 106 °C
3  N#CC1(O)C(C2COC3(CCCCC3)O2)OC2OC3(CCCCC3)OC21 (stereo unspecified)      melting point  107 to 113 °C

What does the record list as melting point for `Cc1ccc([N+](=O)[O-])c(N)n1` ?
146 to 150 °C

What does the record list as melting point for `NC(=O)NN=C(O)/C=C/c1ccccc1` ?
197 to 198 °C

What does the record list as melting point for `Cc1ccc(C(=O)C=Cc2ccc(F)cc2)cc1` ?
119 to 121 °C

What does the record list as melting point for `COc1ccc(CNC(=O)c2cc([N+](=O)[O-])cc([N+](=O)[O-])c2)cc1` ?
151 °C

What does the record list as melting point for `O=C(O)CCCNC(=O)CCCCC(=O)NCCCC(=O)O` ?
145 °C

What does the record list as melting point for `Cc1ccc(C(c2ccc(C)o2)c2ccccc2N=C=S)o1` ?
65 °C

What does the record list as melting point for `CCCCCCCCCC(=O)OC(=O)CCCCCCCCC` ?
24.7 °C

---

melting point values, listed per item

                                   molecule  reported_property         result
0                     Nc1cc(Cl)c(Cl)c(Cl)c1      melting point          99 °C
1                    Cc1ccccc1C(=O)NCC(=O)O      melting point  161 to 165 °C
2                        C=CC[C@H](N)C(=O)O      melting point  253 to 255 °C
3  O=S1(=O)CC(O)C(Br)C1 (centres undefined)      melting point  190 to 192 °C
4              COC(=O)Cc1ccc(OCc2ccccc2)cc1      melting point    53 to 58 °C

What does the record list as melting point for `CC(=O)c1sccc1N` ?
86 to 88 °C

What does the record list as melting point for CC(C)NCC(O)c1ccc([N+](=O)[O-])cc1 (centres undefined) ?
98 °C

What does the record list as melting point for `Cn1c(=O)[nH]c2ccccc21` ?
192 to 196 °C

What does the record list as melting point for `CN1C(=O)C(=NNc2cccc(Cl)c2)C(=O)N(C)C1=O` ?
202 °C

---

melting point values, listed per item

Worked examples follow.
In [3]: df
Out[3]:
                                   compound         result
0                NC(=S)c1ccc(OCC(F)(F)F)nc1  120 to 123 °C
1  CC(C)(C)OC(=O)C[C@H]1C[C@@H](CC#N)OC(C)(C)O1    65 to 70 °C
2                           Brc1coc2ccccc12    35 to 38 °C
3                   CCCc1cc(C(C)=O)c(O)cc1O   99 to 101 °C
4            O=C(Nc1ccccc1)C(Cl)=NNc1ccccc1  159 to 161 °C

What does the record list as melting point for `CN(CCO)c1cc(C(F)(F)F)nc2ccccc12` ?
90.5 to 92.5 °C

What does the record list as melting point for `C[C@]12CCC(=O)C=C1CC[C@@H]1[C@@H]2CC[C@@]2(C)[C@H]1CC[C@]2(O)C#Cc1ccccc1` ?
185 to 187 °C

What does the record list as melting point for CC1(c2ccccc2)CNCCO1 (centres undefined) ?
36 °C

What does the record list as melting point for COc1ccccc1P(CCP(c1ccccc1)c1ccccc1OC)c1ccccc1 (centres undefined) ?
102 to 104 °C

What does the record list as melting point for COc1cccc(C2NC(=O)NC(C)=C2C(=O)OC(C)C)c1OC (centres undefined) ?
167 °C

---

melting point values, listed per item

>>> df
                              compound           result
0  O=C1c2ccccc2C(=O)N1c1n[nH]c2ccccc12    239 to 241 °C
1                    Cn1cc(Br)c(CCl)n1  76.5 to 78.5 °C

Now for the compound whose melting point we want.
What does the record list as melting point for `SC1=NN=C(S)NN1` ?
191 to 193 °C

---

melting point values, listed per item

In [3]: df
Out[3]:
                                   compound         result
0  CC1(C)CC(C(=O)Oc2ccc([N+](=O)[O-])cc2)C(C)(C)N1O (configuration not stated)    77 to 80 °C
1                  O=C(O)c1ccc(CN2CCCC2)cc1  184 to 185 °C
2       N#Cc1sc2c(=O)c3ccccc3c(=O)c=2sc1C#N         225 °C
3  CC1CCC(C(C)C)C(OC(=O)C(c2ccccc2)c2ccccc2)C1 (configuration not stated)          53 °C
4  O=C(NC1(Cc2ccccc2)COCOC1=O)c1ccccc1 (racemic)  176 to 178 °C

What does the record list as melting point for `NS(=O)(=O)c1c(Cl)nc2sccn12` ?
176 to 177 °C

What does the record list as melting point for O=C(O)CC(C(=O)O)C(CC(=O)O)C(=O)O (configuration not stated) ?
195 to 197 °C
